system: H1975 (lung adenocarcinoma, DM, L828R/T790M); assay: Antiproliferative activity on H1975 cells (Alamar Blue); format: cell-based; conditions: Homo sapiens, NCI-H1975; H1975 cells, average values obtained in several tests, Table 16; read-out: H1975 (DM) IC50
READOUT_NAME: IC50

>>> value_measured("C=CC(=O)Nc1cc(Nc2cc(C(=O)c3ccc(N(C)C)cc3)ccn2)c(OC)cc1N(C)CCN(C)C.O=C(O)C(F)(F)F [EGFR_3365_4, 2,2,2-trifluoroacetate]")
"35.3 nM"
>>> value_measured("C=CC(=O)Nc1cc(Nc2nccc(C(=O)c3ccc(N4CCC(OC)CC4)cc3)n2)c(OC)cc1N(C)CCN(C)C")
"13.7 nM"
>>> value_measured("C=CC(=O)Nc1cc(Nc2nccc(C(=O)c3ccc(N4CCCCC4)cc3)n2)c(OC)cc1N(C)CCN(C)C")
"5 nM"
>>> value_measured("C=CC(=O)Nc1cc(Nc2nccc(C(=O)c3ccc(N4CCC[C@@H](O)C4)cc3)n2)c(OC)cc1N(C)CCN(C)C")
"8.66 nM"
>>> value_measured("C=CC(=O)Nc1cc(Nc2nccc(C(=O)c3ccc(N4CCN(C)CC4)cc3OC)n2)c(OC)cc1N(C)CCN(C)C")
"4.5 nM"
>>> value_measured("C=CC(=O)Nc1cc(Nc2nccc(C(=O)c3ccc(F)cc3)n2)c(OC)cc1N(C)CCN(C)C")
"211 nM"
>>> value_measured("C=CC(=O)Nc1cc(Nc2nccc(C(=O)c3ccc(Oc4ccccc4)cc3)n2)c(OC)cc1N(C)CCN(C)C")
"393 nM"
>>> value_measured("C=CC(=O)Nc1cc(Nc2cc(C(=O)c3ccc(C)cc3)ccn2)c(OC)cc1N(C)CCN(C)C")
"69.4 nM"
>>> value_measured("C=CC(=O)Nc1cc(Nc2cc(C(=O)c3ccc(OCCOC)cc3)ccn2)c(OC)cc1N(C)CCN(C)C")
"104 nM"
>>> value_measured("C=CC(=O)Nc1cc(Nc2nccc(C(=O)c3ccc(N4CCC(N(C)C)CC4)cc3)n2)c(OC)cc1N(C)CCN(C)C [EGFR_3365_121a]")
"2.55 nM"
>>> value_measured("C=CC(=O)Nc1cc(Nc2nccc(C(=O)c3ccc(N4CCCC4)cc3OC)n2)c(OC)cc1N(C)CCN(C)C")
"1.18 nM"
>>> value_measured("C=CC(=O)Nc1cc(Nc2nccc(C(=O)c3ccc(OC(C)C)cc3)n2)c(OC)cc1N(C)CCN(C)C")
"7.34 nM"
>>> value_measured("C=CC(=O)Nc1cc(Nc2nccc(C(=O)c3ccc(NCCO)cc3)n2)c(OC)cc1N(C)CCN(C)C.O=CO [EGFR_3365_106, formate]")
"33.3 nM"
>>> value_measured("C=CC(=O)Nc1cc(Nc2nccc(C(=O)c3ccc(OC4CCCCC4)cc3)n2)c(OC)cc1N(C)CCN(C)C")
"221 nM"

###

We begin with a simple list: items and their reported Stability in SGF, %.
assay: Chemical stability in simulated gastric fluid (SGF); assay type: physicochemical; conditions: SGF without enzymes, pH 1,4; 10 μm; 2 hours at 37° C.; substance amount remaining
READOUT_NAME: Stability in SGF, % (%)

>>> value_measured("C=CC(=O)Nc1cc(Nc2nccc(C(=O)c3ccccc3Br)n2)c(OC)cc1N(C)CCN(C)C")
100.0
>>> value_measured("C=CC(=O)Nc1cc(Nc2nccc(C(=O)c3ccc(N(C)C)cc3)n2)c(OC)cc1N(C)CCN(C)C")
100.0
>>> value_measured("C=CC(=O)Nc1cc(Nc2cc(C(=O)c3ccc(OCC)cc3)ccn2)c(OC)cc1N(C)CCN(C)C")
100.0
>>> value_measured("C=CC(=O)Nc1cc(Nc2nccc(C(=O)c3ccc(N4CC(OC)C4)cc3)n2)c(OC)cc1N(C)CCN(C)C")
100.0
